Target: GABAA channels composed of α1β3 subunits (Rattus norvegicus, UniProt P62813+P63079)
Construct: expressed in transfected cells; host or cells: Xenopus laevis oocytes injected with cRNA transcribed from cDNA in pCMV vector
Sequence (P62813 28-455): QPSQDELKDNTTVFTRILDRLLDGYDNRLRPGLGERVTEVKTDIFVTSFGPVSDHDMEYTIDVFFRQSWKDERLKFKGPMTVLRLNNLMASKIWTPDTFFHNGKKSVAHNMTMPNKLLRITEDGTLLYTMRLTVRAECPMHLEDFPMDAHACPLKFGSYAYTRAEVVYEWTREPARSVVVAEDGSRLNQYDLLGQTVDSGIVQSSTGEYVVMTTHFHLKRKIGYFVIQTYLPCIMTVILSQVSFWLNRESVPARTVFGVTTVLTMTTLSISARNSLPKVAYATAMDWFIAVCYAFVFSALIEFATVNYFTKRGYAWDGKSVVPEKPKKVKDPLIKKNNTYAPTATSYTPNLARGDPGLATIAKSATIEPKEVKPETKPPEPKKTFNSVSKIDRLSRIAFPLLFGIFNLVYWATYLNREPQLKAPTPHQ
Sequence (P63079 26-473): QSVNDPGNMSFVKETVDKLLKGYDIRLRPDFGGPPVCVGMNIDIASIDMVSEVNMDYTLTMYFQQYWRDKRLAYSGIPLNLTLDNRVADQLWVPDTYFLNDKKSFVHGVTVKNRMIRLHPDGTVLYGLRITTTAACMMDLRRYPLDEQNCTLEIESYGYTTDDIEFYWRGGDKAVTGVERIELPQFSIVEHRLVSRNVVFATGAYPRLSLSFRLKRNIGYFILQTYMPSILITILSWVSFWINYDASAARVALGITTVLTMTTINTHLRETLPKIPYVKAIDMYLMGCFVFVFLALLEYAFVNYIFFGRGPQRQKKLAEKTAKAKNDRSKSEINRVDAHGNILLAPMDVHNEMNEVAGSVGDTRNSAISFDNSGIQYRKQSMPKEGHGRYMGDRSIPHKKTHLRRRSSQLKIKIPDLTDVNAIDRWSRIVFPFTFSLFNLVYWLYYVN
Assay: Modulation of IGABA, two-microelectrode voltage-clamp on recombinant GABAA receptors expressed in Xenopus laevis oocytes
Format: cell-based
Settings: GABA EC3-5
measurement_name: Hill-Coefficient (nH)

CNC(=O)/C(C)=C/[C@@H]1CC[C@@H](C)[C@H]2CCC(C)=C12 : 1.4
CC1=C2[C@H](/C=C(\C)C(=O)NC(C)C)CC[C@@H](C)[C@H]2CC1 : 1.5
CCNC(=O)/C(C)=C/[C@@H]1CC[C@@H](C)[C@H]2CCC(C)=C12 : 1.3
CCN(CC)C(=O)/C(C)=C/[C@@H]1CC[C@@H](C)[C@H]2CCC(C)=C12 : 1.4

(P) CC1=C2[C@H](/C=C(\C)C(N)=O)CC[C@@H](C)[C@H]2CC1
(Q) CCCCNC(=O)/C(C)=C/[C@@H]1CC[C@@H](C)[C@H]2CCC(C)=C12
Prompt: # return whichever of P and Q has the smaller Hill-Coefficient (nH) I would appreciate it if you answered with the label of your choice.
Completion: Q

Data origin, for the record: patent US8809395B2
